TARGET DESC: NK2 (Homo sapiens, UniProt P21452)
Sequence (P21452 1-398): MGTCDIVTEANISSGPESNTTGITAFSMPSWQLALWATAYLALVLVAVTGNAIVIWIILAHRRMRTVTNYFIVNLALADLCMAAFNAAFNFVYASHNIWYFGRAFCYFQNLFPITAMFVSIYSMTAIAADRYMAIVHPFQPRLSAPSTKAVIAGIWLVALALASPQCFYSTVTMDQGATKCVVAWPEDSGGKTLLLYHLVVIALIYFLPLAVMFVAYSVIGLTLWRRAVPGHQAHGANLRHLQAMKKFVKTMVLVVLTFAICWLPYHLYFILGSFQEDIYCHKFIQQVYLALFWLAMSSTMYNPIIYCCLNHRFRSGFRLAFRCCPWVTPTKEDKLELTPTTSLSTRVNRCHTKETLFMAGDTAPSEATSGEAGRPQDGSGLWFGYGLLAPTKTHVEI
PROTOCOL DETAILS: Signal transduction (ST), intracellular Ca++ (FLIPR), NK2
Type: cell-based
REPORTED CONDITIONS: read-out: pIC50 NK2 (converted)
MEASUREMENT TYPE: IC50 (nM)
# number only, unit nM dropped from output

Guide cases for IC50, answers given:
1. O=C(c1cccnc1)N1CCCC(N2CCN([C@H]3CCN(C(=O)c4cc(C(F)(F)F)cc(C(F)(F)F)c4)[C@H](Cc4ccccc4)C3)CC2)C1 (stereo partly drawn)    3980
2. O=C(c1cc(C(F)(F)F)cc(C(F)(F)F)c1)N1CC[C@H](N2CCN(C3CCCN(S(=O)(=O)c4csc(COCc5ccccc5)c4)C3)CC2)C[C@H]1Cc1ccccc1 (stereo partly drawn)    1260
3. O=C(Nc1ccccc1F)N1CCCC(N2CCN([C@H]3CCN(C(=O)c4cc(C(F)(F)F)cc(C(F)(F)F)c4)[C@H](Cc4ccccc4)C3)CC2)C1 (stereo partly drawn)    1580
4. O=C(c1cc(C(F)(F)F)cc(C(F)(F)F)c1)N1CC[C@H](N2CCN(C3CCCN(C(CO)c4ccoc4)C3)CC2)C[C@H]1Cc1ccccc1 (stereo partly drawn)    1580
5. O=C(Cc1cccs1)N1CCCC(N2CCN([C@H]3CCN(C(=O)c4cc(C(F)(F)F)cc(C(F)(F)F)c4)[C@H](Cc4ccccc4)C3)CC2)C1 (stereo partly drawn)    2000

Write down IC50 measured for item O=C(c1cc(C(F)(F)F)cc(C(F)(F)F)c1)N1CC[C@H](N2CCN(C3CCCN(S(=O)(=O)c4ccc(CCOCc5ccccc5)s4)C3)CC2)C[C@H]1Cc1ccccc1 (stereo partly drawn)
501

----------
Entries and their IC50
TARGET DESC: NK1 (Homo sapiens, UniProt P25103)
Sequence (P25103 whole entry): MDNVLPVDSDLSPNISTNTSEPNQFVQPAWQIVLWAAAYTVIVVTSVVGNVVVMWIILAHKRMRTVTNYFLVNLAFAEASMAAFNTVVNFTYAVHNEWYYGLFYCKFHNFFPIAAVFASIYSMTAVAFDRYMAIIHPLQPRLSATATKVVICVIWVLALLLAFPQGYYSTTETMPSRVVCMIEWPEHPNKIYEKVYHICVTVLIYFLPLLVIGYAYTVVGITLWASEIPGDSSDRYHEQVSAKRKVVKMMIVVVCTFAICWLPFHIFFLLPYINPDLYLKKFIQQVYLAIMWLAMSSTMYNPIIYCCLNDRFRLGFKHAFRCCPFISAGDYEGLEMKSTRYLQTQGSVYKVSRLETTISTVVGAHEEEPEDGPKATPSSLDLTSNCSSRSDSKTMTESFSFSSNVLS
PROTOCOL DETAILS: Signal transduction (ST), intracellular Ca++ (FLIPR), NK1 antagonism
Type: cell-based
REPORTED CONDITIONS: read-out: pIC50 NK1 (converted)
# number only, unit nM dropped from output

Guide cases for IC50, answers given:
1. CC(C)S(=O)(=O)N1CCCC(N2CCN([C@H]3CCN(C(=O)c4cc(C(F)(F)F)cc(C(F)(F)F)c4)[C@H](Cc4ccccc4)C3)CC2)C1 (some centres unmarked)    10
2. O=C(c1ccc(CCOCc2ccccc2)s1)N1CCCC(N2CCN(C3CCN(C(=O)c4cc(C(F)(F)F)cc(C(F)(F)F)c4)C(Cc4ccccc4)C3)CC2)C1 (centres unmarked)    126

Write down IC50 measured for item O=C(c1ccoc1)N1CCCC(N2CCCN(C3CCN(C(=O)c4cc(C(F)(F)F)cc(C(F)(F)F)c4)C(Cc4ccccc4)C3)CC2)C1 (single isomer, unassigned) [Compound 116]
50.1

Write down IC50 measured for item O=C(c1ccccc1Cl)N1CCCC(N2CCN([C@H]3CCN(C(=O)c4cc(C(F)(F)F)cc(C(F)(F)F)c4)[C@H](Cc4ccccc4)C3)CC2)C1 (some centres unmarked)
25.1

Write down IC50 measured for item O=C(c1cc(C(F)(F)F)cc(C(F)(F)F)c1)N1CC[C@H](N2CCN(C3CCCN(S(=O)(=O)c4ccc(COCc5ccccc5)s4)C3)CC2)C[C@H]1Cc1ccccc1 (some centres unmarked)
316
